# run_description: inhibitors of hydroxyurea-induced Chk1 phosphorylation, primary screen, imaging, HeLa, phospho-Chk1 antibody, percent positive cells (AID 1186)
# protocol_conditions: hydroxyurea-induced phospho-Chk1 immunofluorescence imaging, higher = more signal
Here, each record is paired with measured z-score data.
The answer should be written as a number, with no unit following it.

Observe how each entry below is paired with its result.
{"compound": "C=C(C(=O)CC[C@@H](OC(=O)c1cccnc1)c1ccccc1OCCO)C(C)C", "endpoint": "z-score", "observed_value": 0.434}
{"compound": "CCC[C@@H]1C[C@@]1(CCC)[C@@H](NS(=O)(=O)c1cccc2cccnc12)c1ccc(Cl)cc1", "endpoint": "z-score", "observed_value": 0.555}
{"compound": "COc1ccc([Si](C)(C)[C@@H]2[C@@H](CCO)O[C@]3(C(=O)N(Cc4ccc(N(C=O)c5ccccc5)cc4)c4ccccc43)[C@H]2C)cc1", "endpoint": "z-score", "observed_value": -1.27}
{"compound": "C=C(CCCC)/C(=C/C[C@H](OC(=O)c1ccncc1)c1ccccc1OCCO)c1cnc2ccccc2c1", "endpoint": "z-score", "observed_value": 0.618}
{"compound": "O=C(NCCO)C1=C[C@H](Oc2ccccc2I)[C@@H](O)[C@H](N(Cc2ccco2)C(=O)Cc2ccccc2)C1", "endpoint": "z-score", "observed_value": 0.0831}
{"compound": "O=C(OCc1ccccc1)C1=CCC2c3[nH]c4ccccc4c3C(=O)C1N2S(=O)(=O)c1ccccc1[N+](=O)[O-] (stereo not drawn)", "endpoint": "z-score", "observed_value": -0.824}
{"compound": "O=C(c1ccccc1)N1C(=O)[C@]2(COC(c3ccc(OCCCO)cc3)=N2)Cc2ccccc21", "endpoint": "z-score", "observed_value": -0.255}

Then this compound:
[Q] Identify measured z-score associated with COC(=O)[C@H](Cc1ccccc1)N1CC2=C[C@@H](C3CC3)n3c(=O)n(C)c(=O)n3[C@H]2[C@@H]1[C@@H](O)Cc1ccccc1
[A] 0.183

###

# run_description: S. cerevisiae growth modulation with rapamycin, primary screen, strain BY4716, OD600, 96 h (AID 1091); note: test concentration not given here
# protocol_conditions: higher = more signal, called active from +8 up or from −8 down
endpoint: z-score
The answer should be written as a number, with no unit following it.

Observe how each entry below is paired with its result.
{"molecule": "O=C1O[C@H](c2ccccc2)[C@H](c2ccccc2)N2[C@H]1[C@@H](C(=O)N1CCCCCCC1)[C@]1(C(=O)Nc3ccc(C#CCCO)cc31)[C@H]2c1ccccc1OCCO", "z-score": 4.15}
{"molecule": "O=C(N1CCCCC1)[C@]1(Cc2ccccc2)N=C(c2ccc(OCCCO)cc2)O[C@@H]1c1ccccc1", "z-score": 3.64}
{"molecule": "COc1ccc(C#Cc2ccc3c(c2)[C@]2(C(=O)N3)[C@H](c3ccccc3OCCO)N3[C@H](c4ccccc4)[C@H](c4ccccc4)OC(=O)[C@H]3[C@@H]2C(=O)Nc2nc3ccccc3s2)cc1", "z-score": 0.871}
{"molecule": "Cc1ccc(S[C@]2(C(=O)NCCCN(C)C)CC(=O)N(Cc3cc(C(F)(F)F)cc(C(F)(F)F)c3)[C@@H]2c2ccc(CO)cc2)cc1", "z-score": -0.497}
{"molecule": "C=C(/C(=C/C[C@H](OC(C)=O)c1ccccc1OCCO)c1cnc2ccccc2c1)C(C)C", "z-score": 1.11}

[Q] Identify measured z-score associated with COCCOC(=O)N1C(=O)[C@@]2(c3ccccc31)[C@H](c1ccc(O)cc1)N1[C@H](c3ccccc3)[C@H](c3ccccc3)OC(=O)[C@H]1[C@@H]2C(=O)Nc1nc2ccccc2s1
[A] 1.75

[Q] Identify measured z-score associated with COc1ccccc1CN1C(=O)c2ccccc2[C@@]2(Cc3ccccc3N(CC(C)C)C2=O)[C@@H]1c1ccc(CO)cc1
[A] -1.03
